Target system: T1, PUF4 RNA-binding domain (Saccharomyces cerevisiae, UniProt P25339 537-888)
T1 sequence: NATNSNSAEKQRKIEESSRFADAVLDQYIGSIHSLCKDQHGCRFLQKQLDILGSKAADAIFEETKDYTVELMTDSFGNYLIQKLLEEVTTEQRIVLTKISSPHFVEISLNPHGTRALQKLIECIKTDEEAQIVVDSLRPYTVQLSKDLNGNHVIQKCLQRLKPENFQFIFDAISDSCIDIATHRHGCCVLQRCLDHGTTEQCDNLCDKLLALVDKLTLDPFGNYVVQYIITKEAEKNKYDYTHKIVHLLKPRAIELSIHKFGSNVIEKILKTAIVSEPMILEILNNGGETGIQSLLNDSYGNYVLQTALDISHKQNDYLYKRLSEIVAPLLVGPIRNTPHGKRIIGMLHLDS
Assay: Mg; RNA-MaP; 20 mM Na-HEPES pH 7.4, 30 mM KOAc, 0.75 mM MgCl2, 0.1% Tween-20, 5% glycerol, 0.1 mg/mL BSA, 2 mM DTT; 25 C; 0.0125-409.6 nM protein
Experimental context: tags: N-His6-TEV cleaved; C-SNAP kept, Cy3B-labelled; label: tethered on chip by stalled RNA polymerase
Kd values, listed per item
Measured endpoint: Kd (nM)

- ACAAACCUUAUAUAUUAACACAAAC (ssRNA) [Id_ii_S3_P4E.3_K4.2_C4.2_H4.2_A4.1_F4.1_T4.2_[G10A]_[T11C]]: 21.6
- Id_ii_S2_P5E.2_K5.1_C5.2_[T-1A]_H5.1_A5.1_F5.1_T5.2_[T11G]_[A12T] (ssRNA) RNA: UUUGAUUAAUAUGAUAUCGUUCUUUCUCAUGUAUUAUUAGUUUCUUUCUCGAUAUCAUAUUAAUCUUU: 2.92
- Id_ii_S2_P4E.3_K4.2_C4.2_[C-2T]_[T-1G]_H4.2_A4.1_F4.1_T4.2_[G10A]_[T11C] (ssRNA) RNA: UUUGAUUAAUAUGAUAUCGUUCUUUCUUGUAUAUAUUAACUUCUUUCUCGAUAUCAUAUUAAUCUUU: 4.44
- Ic_S4_P4E.1_K4.1_C4.1_H4.1_A4.1_[T5C]_[A6G]_F4.1_[T8A]_[A9T]_T4.1 (ssRNA) RNA: UUUGACAACUGAUCGUUCUUUCUUGUACGUAUUUCUUUCUCGAUCAGUUGUCUUU: 30.2
- UCUCUUUGUAUGUAAUCUCUU (ssRNA) [Ib_S1_P4E.1_K4.1_C4.1_H4.1_A4.1_[A6G]_F4.1_[T8A]_T4.1]: 94.6
- Ie_S4_P3E.2_K3.1_C3.2_[+-1CCTC]_H3.1_A3.1_F3.1_T3.2 (ssRNA) RNA: UUUGACAACUGAUCGUUCUUUCUCUCCUCUGUAUAUAUAUUCUUUCUCGAUCAGUUGUCUUU: 1.06
- Ic_S2_P5E.1_K5.1_C5.1_H5.1_A5.1_[T5C]_[T6C]_F5.1_[T8C]_[T9C]_[A10G]_T5.1 (ssRNA) RNA: UUUGAUUAAUAUGAUAUCGUUCUUUCUUGUACCACCGUUCUUUCUCGAUAUCAUAUUAAUCUUU: 619
- Ie_S2_P5E.1_K5.1_C5.1_H5.1_A5.1_F5.1_[+8CCCT]_T5.1 (ssRNA) RNA: UUUGAUUAAUAUGAUAUCGUUCUUUCUUGUAUUAUCCCUUAUUCUUUCUCGAUAUCAUAUUAAUCUUU: 11.6
- Ib_S2_P5E.1_K5.1_C5.1_H5.1_A5.1_[T6C]_F5.1_[A10C]_T5.1 (ssRNA) RNA: UUUGAUUAAUAUGAUAUCGUUCUUUCUUGUAUCAUUCUUCUUUCUCGAUAUCAUAUUAAUCUUU: 6.38
- UCUCUUUUUUGUAUUUUAGUUCUCUU (ssRNA) [Id_iii_S1_P4E.8_K4.4_C4.3_[C-2T]_H4.1_A4.2_F4.1_T4.2]: 1.81
